System: EKVX NSCLC
Assay: NCI tumour cell line growth inhibition, 48 h
Please provide measured GI50 for the entries that follow.

Use the examples below as a reference point.
- Compound: "Fc1cccc(COc2ccc(Nc3ncnc4sc(-c5cccs5)cc34)cc2Cl)c1"
  GI50: "4.74 µM"
- Compound: "CCN(Cc1ccc(C)cc1)c1ccc(CO)c(Cl)c1"
  GI50: "12.9 µM"
- Compound: "COc1ccc(/C=C/C(=O)c2cc(OC)c(OC)c(OC)c2)cc1OCC(=O)Nc1nc2ccc(OC(F)(F)F)cc2s1"
  GI50: "5.11 µM"
- Compound: "C=C1CC[C@@H]2[C@](C)(COC(C)=O)[C@H](OC(C)=O)CC[C@@]2(C)[C@@H]1CC(Nc1ccc(S(=O)(=O)NC(C)=O)cc1)C1=CCOC1=O (stereo partly specified)"
  GI50: "10.8 µM"
- Compound: "OCCN1CCN(CCCN2c3ccccc3Sc3ccc(Cl)cc32)CC1"
  GI50: "3.43 µM"
- Compound: "Cc1nc([P+](c2ccccc2)(c2ccccc2)c2ccccc2)c(Sc2sc(-c3ccccc3)nc2[P+](c2ccccc2)(c2ccccc2)c2ccccc2)o1"
  GI50: "1.1 µM"

Provide the reported GI50 of each entry below, same order.
1. COCCNCc1ccc(-c2cc3nccc(Oc4ccc(NC(=S)NC(=O)Cc5ccc(F)cc5)cc4F)c3s2)nc1
2. COc1ccc(C2CC(c3cccc(Nc4ccnc5cc(Cl)ccc45)c3)=NN2C=O)cc1 (stereo unspecified)
3. CCN1C(=S)N(c2ccccc2)C2NC(=S)N(/N=C/C=C/c3ccccc3OC)C21 (stereo unspecified)
4. Cc1cccc(N(C)C(=O)[C@@H]2[C@H](O)CCN2c2nc(C)cc(C(F)(F)F)c2C#N)c1

Output:
1. 2.5 µM
2. 1.19 µM
3. 0.505 µM
4. 24.6 µM

Task: Kindly indicate its recorded GI50. Item: CCCCCCCCCCCCOC1C(CNC(=O)C2OC3OC(C)(C)OC3C2NC(=O)Nc2ccc(CC(=O)OC)cc2)OC2OC(C)(C)OC21 (stereo unspecified)
Output: > 100 µM
